The values you see were collected from patent US6436933B1.

experimental_target: Anthrax Lethal Factor (ALF) (Bacillus anthracis, UniProt P15917)
Sequence (P15917 34-809 limits assumed): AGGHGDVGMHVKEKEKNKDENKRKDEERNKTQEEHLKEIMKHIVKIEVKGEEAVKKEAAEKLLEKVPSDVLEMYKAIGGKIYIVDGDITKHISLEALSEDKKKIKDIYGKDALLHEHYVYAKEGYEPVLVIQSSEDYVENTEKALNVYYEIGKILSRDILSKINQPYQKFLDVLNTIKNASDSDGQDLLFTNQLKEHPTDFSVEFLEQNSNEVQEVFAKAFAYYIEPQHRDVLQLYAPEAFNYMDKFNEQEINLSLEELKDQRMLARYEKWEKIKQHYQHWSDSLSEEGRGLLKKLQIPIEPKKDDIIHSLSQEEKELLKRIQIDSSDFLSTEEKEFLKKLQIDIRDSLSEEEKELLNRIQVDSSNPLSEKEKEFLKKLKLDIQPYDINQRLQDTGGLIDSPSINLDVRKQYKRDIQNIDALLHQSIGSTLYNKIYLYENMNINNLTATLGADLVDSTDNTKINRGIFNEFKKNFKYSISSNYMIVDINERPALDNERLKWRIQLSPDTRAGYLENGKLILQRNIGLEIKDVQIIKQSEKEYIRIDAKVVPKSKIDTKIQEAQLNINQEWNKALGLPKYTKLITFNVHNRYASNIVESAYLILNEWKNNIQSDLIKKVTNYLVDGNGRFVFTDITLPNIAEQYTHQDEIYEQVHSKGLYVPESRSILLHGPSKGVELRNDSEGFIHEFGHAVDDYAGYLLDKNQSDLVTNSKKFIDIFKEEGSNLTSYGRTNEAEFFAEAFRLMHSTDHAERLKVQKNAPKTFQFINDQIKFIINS
Type: biochemical
Some molecules, each annotated with its measured Activity by Gel, % @ 200.
Output spec: scalar in % @ 200, unitless text.

Here's what some known entries look like.
CC(C)Cc1nc(-c2ccccc2)cn(O)c1=O [Compound 4] | 0
CC(C)c1nc(-c2ccccc2)c(-c2ccccc2)n(O)c1=O [Compound 1] | 0

Entry Cc1c(-c2ccccc2)nc(CC(C)C)c(=O)n1O [Compound 3] — recorded Activity by Gel, % @ 200 = 0

Memo: O=c1c(Cc2ccccc2)nc(-c2ccccc2)c(-c2ccccc2)n1O [Compound 5] , reported Activity by Gel, % @ 200: 45

The value of Activity by Gel, % @ 200 measured for the molecule CCc1nc(C(C)C)c(=O)n(O)c1CC [Compound 2] turned out to be 0
